Answer each item with its documented normalized growth.
- experimental_details: chemical genetic growth profiling, strain panel (AID 1159580);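 also: tested at 20 µM; growth read once vehicle control cultures reached saturation at 30 °C; 1 = growth at the plate median or of vehicle wells; lower values mean less growth of the strain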
- condition_parameters: S. cerevisiae deletion strains, growth OD, locus YMR307W, strain GAS1, active compounds read low
Out of some 5,500 compounds screened, about 2,000 (36%) were called active. Roughly 18% stayed inconclusive and do not appear here. Some of the results follow. Where a SMILES comes first, the peptide text is derived from it. The star is where a group is joined. Cbz = O=C(OCc1ccccc1)*

Suppose we examine the molecule C[C@]12CCC3c4ccc(O)cc4CCC3C1CC[C@@H]2O (stereo partly specified) ; what normalized growth value has been reported?
0.929 (inactive)

Suppose we examine the molecule `CCCCOc1cc(C(=O)NCCN(CC)CC)c2ccccc2n1` ; what normalized growth value has been reported?
1.1 (inactive)

Suppose we examine the molecule `CC(C)C[C@H](N)CSSC[C@@H](N)CC(C)C` ; what normalized growth value has been reported?
1.01 (inactive)

Suppose we examine the molecule OCC(O)C(O)C(O)C(O)C(O)CO (stereo unspecified) ; what normalized growth value has been reported?
1.12 (inactive)

Suppose we examine the molecule `N#C/C(=C/c1ccc(O)c(O)c1)C(N)=S` ; what normalized growth value has been reported?
1 (inactive)

Suppose we examine the molecule C[C@]12CCC3c4ccc(OS(=O)(=O)O)cc4CCC3C1CC[C@H]2O (stereo partly specified) ; what normalized growth value has been reported?
0.928 (inactive)

Suppose we examine the molecule `C=C1SC(Nc2cccc(C(F)(F)F)c2)=NC12CCCCC2` ; what normalized growth value has been reported?
0.937 (inactive)

Suppose we examine the molecule `COC(=O)CSc1ncnc2c(C)csc12` ; what normalized growth value has been reported?
0.903 (inactive)

Suppose we examine the molecule `N#CC(C#N)=Cc1cc(O)c(O)c(O)c1` ; what normalized growth value has been reported?
0.995 (inactive)

Suppose we examine the molecule CC(C)[C@H](NC(=O)OCc1ccccc1)C(=O)N[C@H](C=O)Cc1ccccc1 (Cbz-Val-Phe-aldehyde) ; what normalized growth value has been reported?
1.02 (inactive)

Suppose we examine the molecule CC(C)c1c(O)ccc2c1CCC1[C@@](C)(C=O)CCC[C@]21C (stereo partly specified) ; what normalized growth value has been reported?
0.306 (active)

Suppose we examine the molecule `O=C1c2ccccc2C(=O)N1CNc1ccc(N2CCOCC2)cc1` ; what normalized growth value has been reported?
1.01 (inactive)

Suppose we examine the molecule `COc1cc(C=C(C#N)C#N)cc(O)c1O` ; what normalized growth value has been reported?
0.993 (inactive)

Suppose we examine the molecule `CN1C(C)(C)CCCC1(C)C` ; what normalized growth value has been reported?
1.04 (inactive)

Suppose we examine the molecule `O=[N+]([O-])c1ccc(Oc2cccc3cccnc23)cc1` ; what normalized growth value has been reported?
0.719 (inactive)

Suppose we examine the molecule `COC(=O)CSc1nc2ccc(Cl)cc2s1` ; what normalized growth value has been reported?
1.15 (inactive)

Suppose we examine the molecule `C=C(C)[C@H]1CN[C@H](C(=O)O)[C@H]1CC(=O)O` ; what normalized growth value has been reported?
1 (inactive)

Suppose we examine the molecule COC(=O)[C@@]1(C)CCC[C@]2(C)c3ccc(O)c(C(C)C)c3CCC12 (stereo partly specified) ; what normalized growth value has been reported?
0.509 (active)

Suppose we examine the molecule `Cc1cc(I)c(C)cc1I` ; what normalized growth value has been reported?
0.7 (inactive)

Suppose we examine the molecule CC(C)(C)NCC(O)c1cc(Cl)c(N)c(Cl)c1 (stereo unspecified) ; what normalized growth value has been reported?
0.995 (inactive)

Suppose we examine the molecule CC(=O)Oc1ccc2c(c1C(C)C)CCC1C(C)(C)CCC[C@]21C (stereo partly specified) ; what normalized growth value has been reported?
1.02 (inactive)

====

- experimental_details: chemical genetic growth profiling, strain panel (AID 1159580);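 also: tested at 20 µM; growth read once vehicle control cultures reached saturation at 30 °C; 1 = growth at the plate median or of vehicle wells; lower values mean less growth of the strain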
- condition_parameters: S. cerevisiae deletion strains, growth OD, locus YNL271C, strain bni1, active compounds read low
Among all 5,500 compounds or so, about 2,000 (36%) were called active. Not shown: some 18% with an inconclusive outcome. The list shows a part of the results.
Threshold 1. normalized growth below it: Y. normalized growth at it or above: N.

# strict comparison: is reported normalized growth < 1? input = `CCc1cccc(CC)c1N(COC)C(=O)CCl`
N

# strict comparison: is reported normalized growth < 1? input = `COc1c2ccoc2cc2oc(=O)ccc12`
Y

# strict comparison: is reported normalized growth < 1? input = `COc1cc2occc2c2oc(=O)ccc12`
Y

# strict comparison: is reported normalized growth < 1? input = `C=C[C@H]1CN2CC[C@H]1C[C@@H]2[C@@H](OC(=O)OCC)c1ccnc2ccc(OC)cc12`
N

# strict comparison: is reported normalized growth < 1? input = CC1CC[C@]2(NC1)O[C@H]1CC3C4CC[C@H]5C[C@@H](O)CC[C@]5(C)C4CC[C@]3(C)[C@H]1[C@@H]2C (some centres not stated)
Y

====

- experimental_details: chemical genetic growth profiling, strain panel (AID 1159580);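 also: tested at 20 µM; growth read once vehicle control cultures reached saturation at 30 °C; 1 = growth at the plate median or of vehicle wells; lower values mean less growth of the strain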
- condition_parameters: S. cerevisiae deletion strains, growth OD, locus YKR026C, strain gcn3, active compounds read low
Screen size: about 5,500 compounds; about 2,000 (36%) were called active. Roughly 18% stayed inconclusive and do not appear here. The list shows a part of the results.
value_kind: normalized growth
A bare number is all that is needed in reply.

Suppose we examine the molecule `COc1cc(O)c2c(=O)c(O)c(-c3ccc(O)c(O)c3)oc2c1` ; what normalized growth value has been reported?
0.945

Suppose we examine the molecule `COc1ccc(-c2cc(=O)c3c(O)cc(O[C@H]4O[C@H](CO[C@@H]5O[C@@H](C)[C@H](O)[C@@H](O)[C@H]5O)[C@@H](O)[C@H](O)[C@H]4O)cc3o2)cc1` ; what normalized growth value has been reported?
1

Suppose we examine the molecule CC1(C)C(=O)C=C[C@@]2(C)C1CC(=O)[C@]1(C)C2CC[C@@]2(C)[C@H](c3ccoc3)OC(=O)[C@H]3O[C@]321 (stereo not given in full) ; what normalized growth value has been reported?
0.998

Suppose we examine the molecule C[C@@H]1O[C@@H](OC[C@H]2OC(Oc3c(-c4ccc(O)c(O)c4)oc4cc(O)cc(O)c4c3=O)[C@H](O)[C@@H](O)[C@@H]2O)[C@H](O)[C@H](O)[C@H]1O (stereo not given in full) ; what normalized growth value has been reported?
1

Suppose we examine the molecule `NC(=NCCC[C@H](N)C(=O)O)N[N+](=O)[O-]` ; what normalized growth value has been reported?
1.01

====

Answer each item with its documented normalized growth.
- experimental_details: chemical genetic growth profiling, strain panel (AID 1159580);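 also: tested at 20 µM; growth read once vehicle control cultures reached saturation at 30 °C; 1 = growth at the plate median or of vehicle wells; lower values mean less growth of the strain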
- condition_parameters: S. cerevisiae deletion strains, growth OD, locus YNL071W, strain lat1, active compounds read low
Among all 5,500 compounds or so, about 2,000 (36%) were called active. About 18% were inconclusive and are not listed. The list shows a part of the results. Where a SMILES comes first, the peptide text is derived from it.
A bare number is all that is needed in reply.

Suppose we examine the compound `CCOCN(C(=O)CCl)c1c(C)cccc1CC` ; what normalized growth value has been reported?
0.989

Suppose we examine the compound `CCC(=O)c1c(O)cc(O)cc1O` ; what normalized growth value has been reported?
0.995

Suppose we examine the compound O=c1ccc2cc(OC3OC(CO)C(O)C(O)C3O)c(O)cc2o1 (configuration not stated) ; what normalized growth value has been reported?
0.988

Suppose we examine the compound `NC(=NCCC[C@H](N)C(=O)O)N[N+](=O)[O-]` ; what normalized growth value has been reported?
1.01

Suppose we examine the compound CC1CC[C@@]2(OC1)O[C@H]1CC3C4CC[C@@H]5C[C@@H](O)CC[C@]5(C)C4CC[C@]3(C)[C@H]1[C@@H]2C (some centres not stated) ; what normalized growth value has been reported?
1.04

Suppose we examine the compound `O=C1[O][Bi][O]c2ccccc21` ; what normalized growth value has been reported?
1.03

Suppose we examine the compound `COc1cc(OC)c2c(=O)c(OC)c(-c3ccc(OC)c(OC)c3)oc2c1` ; what normalized growth value has been reported?
1.01

Suppose we examine the compound CC(C1OC(C)(C)C(O)C1O)[C@@H]1CC[C@]2(C)C3=CCC4C(C)(C)C(=O)CC[C@]4(C)C3CC[C@@]12C (some centres not stated) ; what normalized growth value has been reported?
0.906

Suppose we examine the compound COC(=O)[C@H](Cc1ccccc1)NC(=O)[C@@H](N)CC(=O)O (H-Asp-Phe-OMe) ; what normalized growth value has been reported?
1.02

Suppose we examine the compound CC(=O)O[C@]1(C(C)=O)CCC2C3C=C(Cl)C4=CC(=O)[C@@H]5C[C@@H]5[C@]4(C)C3CC[C@@]21C (some centres not stated) ; what normalized growth value has been reported?
0.963

Suppose we examine the compound `NC(=O)c1ncn([C@@H]2O[C@H](CO)[C@@H](O)[C@H]2O)n1` ; what normalized growth value has been reported?
0.988

Suppose we examine the compound CCCCC1C(=O)N(c2ccccc2)N(c2ccc(O)cc2)C1=O (configuration not stated) ; what normalized growth value has been reported?
0.997
